Each recorded value in this set is attributed to the supplement of paper PMC8253809.

Tested on: HGGX39 (paediatric high-grade glioma line)
Experiment Description: maximal growth inhibition (yFin) relative to DMSO / staurosporine; higher = more efficacious
Parameter: maximal growth inhibition (%)
# output: bare number, implied unit %

Solved cases below.
CN(C)C(=O)C(CCN1CCC(O)(c2ccc(Cl)cc2)CC1)(c1ccccc1)c1ccccc1 [LOPERAMIDE]; 80.5
COC(=O)[C@]12CCC(C)(C)C[C@H]1[C@H]1C(=O)C=C3[C@@]4(C)C=C(C#N)C(=O)C(C)(C)[C@@H]4CC[C@@]3(C)[C@]1(C)CC2; 92.1
CCCCc1oc2ccc(NS(C)(=O)=O)cc2c1C(=O)c1ccc(OCCCN(CCCC)CCCC)cc1; 106

Look up maximal growth inhibition for this compound: OC1(c2ccc(Cl)c(C(F)(F)F)c2)CCN(CCCC(c2ccc(F)cc2)c2ccc(F)cc2)CC1 91

###

Tested on: DIPGX7 (H3.3 K27M diffuse intrinsic pontine glioma line)
Experiment Description: area under dose-response curve of % growth inhibition (log2 RLU vs DMSO / staurosporine), 1e-11 to 1e-4 M (% x log10 M); higher = more growth inhibition
Kind request: treat 100 as inclusive, so area under dose-response curve at 100 or higher is Condition met, anything lower is Condition not met.

Some entries whose results are on file:
CS[C@H]1SC[C@H]2C(=O)N(C)[C@@H](C(C)C)C(=O)OC[C@@H](NC(=O)c3cnc4ccccc4n3)C(=O)N[C@@H](C)C(=O)N(C)[C@@H]1C(=O)N(C)[C@@H](C(C)C)C(=O)OC[C@@H](NC(=O)c1cnc3ccccc3n1)C(=O)N[C@@H](C)C(=O)N2C; Condition met
CC(C)[C@H]1C(=O)N[C@@H](CCCNC(=N)N)C(=O)NCC(=O)N[C@@H](CC(=O)O)C(=O)N[C@H](Cc2ccccc2)C(=O)N1C [CILENGITIDE]; Condition not met
Cc1ccc(C(=O)Nc2ccc(CN3CCN(C)CC3)c(C(F)(F)F)c2)cc1C#Cc1cnc2cccnn12; Condition met
C[C@@H]1O[C@@H](O[C@H]2C[C@@H](O)[C@]3(CO)[C@H]4[C@H](O)C[C@]5(C)[C@@H](C6=CC(=O)OC6)CC[C@]5(O)[C@@H]4CC[C@]3(O)C2)[C@H](O)[C@H](O)[C@H]1O; Condition met
COCC1(CO)C(=O)C2CCN1CC2 (stereo unspecified); Condition not met

Dear colleague, could you confirm whether Cc1ccc2nc(NCCN)c3ncc(C)n3c2c1 has area under dose-response curve at or above 100? Condition not met

###

System: DIPGX37 (H3.3 K27M diffuse intrinsic pontine glioma line)
Experiment Description: area under dose-response curve of % growth inhibition (log2 RLU vs DMSO / staurosporine), 1e-11 to 1e-4 M (% x log10 M); higher = more growth inhibition
Just so you know, the groups by area under dose-response curve go like this: lower level: < 20; middle level: ≥ 20 and < 70; upper level: ≥ 70

Some entries whose results are on file:
CCc1c2c(nc3ccc(OC(=O)N4CCC(N5CCCCC5)CC4)cc13)-c1cc3c(c(=O)n1C2)COC(=O)[C@]3(O)CC; middle level
Cn1cc(CCn2cnc(-c3cnn(C)c3)c2-c2ccc(C#N)cc2)cn1; middle level
C[C@@H](NCCCc1cccc(C(F)(F)F)c1)c1cccc2ccccc12; upper level
Cc1ccc2nc(NCCN)c3ncc(C)n3c2c1; upper level
O=C(CCCCCCC(=O)Nc1ccc([C@H]2O[C@@H](CSc3nc(-c4ccccc4)c(-c4ccccc4)o3)C[C@@H](c3ccc(CO)cc3)O2)cc1)NO; lower level

Tag the class for COc1cc(C(C)=O)ccc1OCCCN1CCC(c2noc3cc(F)ccc23)CC1 lower level

Tag the class for Cc1nc(=O)c2cc(CN(C)c3ccc(C(=O)N[C@@H](CCC(=O)O)C(=O)O)s3)ccc2[nH]1 middle level

Tag the class for CCOC(=O)CCNc1cc(N2CCc3ccccc3CC2)nc(-c2ccccn2)n1 middle level

###

System: DIPGX29 (H3.3 K27M diffuse intrinsic pontine glioma line)
Experiment Description: area under dose-response curve of % growth inhibition (log2 RLU vs DMSO / staurosporine), 1e-11 to 1e-4 M (% x log10 M); higher = more growth inhibition
Parameter: area under dose-response curve
Form rule: numeric answer, no unit written next to it.

Solved cases below.
CCc1c2c(nc3ccc(OC(=O)N4CCC(N5CCCCC5)CC4)cc13)-c1cc3c(c(=O)n1C2)COC(=O)[C@]3(O)CC [IRINOTECAN]; 52.4
Fc1ccc(-c2c3cccc(C(F)(F)F)c3nn2Cc2ccc(F)cc2Cl)cc1; 38.1
CCC(C)(C)c1ccc(CC(C)CN2C[C@@H](C)O[C@@H](C)C2)cc1 (some centres undefined) [AMOROLFINE]; 47.6

Attention now shifts to the item below.
Look up area under dose-response curve for this compound: COc1ccccc1S(=O)(=O)Nc1ccc2c(c1)CN(C)C(=O)N2 [PFI-1] 23.7

###

Test system: DIPGX37
Experiment Description: area under dose-response curve of % growth inhibition (log2 RLU vs DMSO / staurosporine), 1e-11 to 1e-4 M (% x log10 M); higher = more growth inhibition
Parameter: area under dose-response curve
Form rule: numeric answer, no unit written next to it.

C/C=C(\C)C(=O)N[C@@H](c1ccccc1)[C@@H](O)C(=O)O[C@H]1C[C@@]2(O)[C@@H](OC(=O)c3ccccc3)[C@@H]3[C@]4(OC(C)=O)CO[C@@H]4C[C@H](O)[C@@]3(C)C(=O)[C@H](OC(C)=O)C(=C1C)C2(C)C; 101
CC(=O)N1CCN(c2ccc(OCC3COC(Cn4ccnc4)(c4ccc(Cl)cc4Cl)O3)cc2)CC1 (stereo unspecified); 36.1
C=CC(=O)N1CCC[C@@H](n2nc(-c3ccc(Oc4ccccc4)cc3)c3c(N)ncnc32)C1; 53.7
OC[C@H]1O[C@@H](n2cnc3c2N=CNC[C@H]3O)C[C@@H]1O; 10.9
COc1cccc2c1C(=O)c1c(O)c3c(c(O)c1C2=O)C[C@@](O)(C(=O)CO)C[C@@H]3O[C@H]1C[C@H](N)[C@H](O)[C@H](C)O1; 210

Attention now shifts to the item below.
# returns recorded area under dose-response curve (system: DIPGX37) for CN(C)C/C=C/C(=O)Nc1cc2c(Nc3ccc(F)c(Cl)c3)ncnc2cc1O[C@H]1CCOC1 116

###

Test system: iAstro (astrocyte control)
Experiment Description: EC50 (inflection of fitted growth-inhibition curve) (log10 M)
Parameter: EC50 (log10 M)
Form rule: numeric answer, no unit written next to it.

# returns recorded EC50 (log10 M) (system: iAstro) for O=C(Nc1ccccc1-c1cn2c(CN3CCNCC3)csc2n1)c1cnc2ccccc2n1 [SRT1720] -5.43

# returns recorded EC50 (log10 M) (system: iAstro) for COC1=CC(c2cc3ccccc3[nH]2)=N/C1=C\c1[nH]c(C)cc1C [OBATOCLAX] -5.45

# returns recorded EC50 (log10 M) (system: iAstro) for C=CCn1c(=O)c2cnc(Nc3ccc(N4CCN(C)CC4)cc3)nc2n1-c1cccc(C(C)(C)O)n1 [MK-1775] -6.04

###

List of area under dose-response curve values.
Test system: HGGX39
Experiment Description: area under dose-response curve of % growth inhibition (log2 RLU vs DMSO / staurosporine), 1e-11 to 1e-4 M (% x log10 M); higher = more growth inhibition
Form rule: numeric answer, no unit written next to it.

CN(C)c1ccc(C(=C2C=CC(=[N+](C)C)C=C2)c2ccc(N(C)C)cc2)cc1; 164

Look up area under dose-response curve for this compound: O=C(c1ccc(Nc2nccc(-c3cc4ccccc4s3)n2)cc1)N1CCC(N2CCCC2)CC1 137

Look up area under dose-response curve for this compound: C[C@@H]1O[C@@H](O[C@H]2C[C@@H](O)[C@]3(CO)[C@H]4[C@H](O)C[C@]5(C)[C@@H](C6=CC(=O)OC6)CC[C@]5(O)[C@@H]4CC[C@]3(O)C2)[C@H](O)[C@H](O)[C@H]1O 218

Look up area under dose-response curve for this compound: CC(=O)c1ccc2c(c1)c1cc(C(C)=O)ccc1n2CCNC(C)C 148

###

System: HABS (astrocyte control)
Experiment Description: area under dose-response curve of % growth inhibition (log2 RLU vs DMSO / staurosporine), 1e-11 to 1e-4 M (% x log10 M); higher = more growth inhibition
Kind request: treat 100 as inclusive, so area under dose-response curve at 100 or higher is yes, anything lower is no.

Some entries whose results are on file:
CCN(c1cc(-c2ccc(CN3CCOCC3)cc2)cc(C(=O)NCc2c(C)cc(C)[nH]c2=O)c1C)C1CCOCC1 [EPZ-6438]; no
COc1ncc(-c2ccc3nccc(-c4ccnnc4)c3c2)cc1NS(=O)(=O)c1ccc(F)cc1F [OMIPALISIB]; yes
CC(C)c1cc(-c2n[nH]c(=O)n2-c2ccc3c(ccn3C)c2)c(O)cc1O [GANETESPIB]; yes
COC(=O)[C@]12CCC(C)(C)C[C@H]1[C@H]1C(=O)C=C3[C@@]4(C)C=C(C#N)C(=O)C(C)(C)[C@@H]4CC[C@@]3(C)[C@]1(C)CC2 [BARDOXOLONE METHYL]; yes
CN1CCc2c(c3ccccc3n2Cc2ccc(C(=O)NO)cc2)C1 [TUBASTATIN A]; no

Dear colleague, could you confirm whether O=C(c1ccc(Nc2nccc(-c3cc4ccccc4s3)n2)cc1)N1CCC(N2CCCC2)CC1 [IKK 16] has area under dose-response curve at or above 100? no
